# Test system: A172 (Glioblastoma)
# PROTOCOL_TEXT: combination Emax (second highest fraction inhibited in the dose matrix, 72 h); higher = more inhibition; extreme values may be limits of the assay
Measured combination Emax by item
Format: numeric value only, no unit, no commentary.

Consider the worked cases shown below.
COMPOUND	ASSAY_RESULT
CN(C)CCCOc1ccc(-c2ccc3ncc4c(c3c2)n(C2CCOCC2)c(=O)n4C)cn1 [AZD0156] + O=C(c1cc(Cc2n[nH]c(=O)c3ccccc23)ccc1F)N1CCN(C(=O)C2CC2)CC1 [Olaparib] (first compound max 3 µM, partner max 3 µM)	0.323
Cn1cnc2c(F)c(Nc3ccc(Br)cc3Cl)c(C(=O)NOCCO)cc21 [Selumetinib] + CC(C)n1c(=O)n(C)c2cnc3cc(F)c(-c4ccc(OCCCN5CCCCC5)nc4)cc3c21 [AZD1390] (first compound max 10 µM, 7x7, partner max 0.3 µM)	0.257
C[C@@H](c1ccc2nccn2c1)n1nnc2ncc(-c3cnn(C)c3)nc21 [Savolitinib] + CC1(C)CCC(CN2CCN(c3ccc(C(=O)NS(=O)(=O)c4ccc(NCC5CCOCC5)c([N+](=O)[O-])c4)c(Oc4cnc5[nH]ccc5c4)c3)CC2)=C(c2ccc(Cl)cc2)C1 [Venetoclax] (first compound max 1 µM, 7x7, partner max 1 µM)	0.145

In the following, a different compound is considered.
Per the records, this compound ( CN(C)CCCOc1ccc(-c2ccc3ncc4c(c3c2)n(C2CCOCC2)c(=O)n4C)cn1 [AZD0156] + C=CCn1c(=O)c2cnc(Nc3ccc(N4CCN(C)CC4)cc3)nc2n1-c1cccc(C(C)(C)O)n1 [AZD1775] (first compound max 1 µM, partner max 1 µM) ) has combination Emax equal to 0.53

---

# Test system: HCC1143 (Breast Carcinoma)
# PROTOCOL_TEXT: combination Emax (second highest fraction inhibited in the dose matrix, 72 h); higher = more inhibition; extreme values may be limits of the assay
REPORTED_ENDPOINT: combination Emax
Format: numeric value only, no unit, no commentary.

Consider the worked cases shown below.
COMPOUND	combination Emax
CC(=O)c1c(C)c2cnc(Nc3ccc(N4CCNCC4)cn3)nc2n(C2CCCC2)c1=O [Palbociclib] + Cc1c2c(nn1C)CSCc1cc(n(C)n1)CSc1cc(c3ccccc3c1)OCCCc1c(C(=O)O)n(C)c3c-2c(Cl)ccc13 [AZD5991] (first compound max 10 µM, 7x7, partner max 1 µM)	0.287
C[C@@H](c1ccc2nccn2c1)n1nnc2ncc(-c3cnn(C)c3)nc21 [Savolitinib] + CN(CC[C@H](CSC1=CC=CC=C1)NC2=C(C=C(C=C2)S(=O)(=O)NC(=O)C3=CC=C(C=C3)N4CCC(CC4)[C@H](C5=CC=CC=C5C6=CC=C(C=C6)Cl)O)S(=O)(=O)C(F)(F)F)CCO [AZD4320] (first compound max 1 µM, 7x7, partner max 1 µM)	0.268

In the following, a different compound is considered.
Per the records, this compound ( COc1cc2c(cc1OCCCCCOc1cc3c(cc1OC)C(=O)N1C=C(C)C[C@H]1C=N3)N=C[C@@H]1CC(C)=CN1C2=O [SG3199] + O=C(c1cc(Cc2n[nH]c(=O)c3ccccc23)ccc1F)N1CCN(C(=O)C2CC2)CC1 [Olaparib] (first compound max 0.001 µM, 7x7, partner max 10 µM) ) has combination Emax equal to 0.225
